system: U2OS; assay: Multiplex assay against U2OS; format: toxicity, cell-based; settings: human, 48 h, 10 µM, compound concentration 10 uM, replicate 2
Would you mind telling me the reported Population Membrane Permeable-Phenotype (%) of each entry?
Write it as a number; the unit % goes unstated.

Population Membrane Permeable-Phenotype (%) in this record for CN1C2CCC1CC(OC(c1ccc(F)cc1)c1ccc(F)cc1)C2.Cl (stereo not given) : 18

So, COCC(=O)NC/C=C/c1ccc2ncnc(Nc3ccc(Oc4ccc(C)nc4)c(C)c3)c2c1 ? Its Population Membrane Permeable-Phenotype (%) was 84

// Population Membrane Permeable-Phenotype (%) lookup, compound = O=C1N/C(=N/c2ccccc2F)S/C1=C\c1ccc(C(=O)O)cc1 , result: 6

Entry O=C(Nc1ccc(-n2nc(-c3cccnc3)cc2C(F)(F)F)cn1)c1ccc(-c2ccccc2)c(F)c1 ; Population Membrane Permeable-Phenotype (%) = 3

Value of Population Membrane Permeable-Phenotype (%) reported for the compound CN(C)C(=O)C(CCN1CCC(O)(c2ccc(Cl)cc2)CC1)(c1ccccc1)c1ccccc1.Cl [LOPERAMIDE HYDROCHLORIDE] is 95

According to the records, this compound CCCS(=O)(=O)c1nc(NC2CC2)cc(-c2ccc3c(ccn3C3CC(C)(C)NC(C)(C)C3)c2)n1 displays Population Membrane Permeable-Phenotype (%) of 97

What the record says about CCOC(=O)c1c(C)[nH]c2ccc3c(c12)CN1CCc2cc(OC)ccc2C1O3 (stereo not given) : Population Membrane Permeable-Phenotype (%) is 81

Please fill in: Population Membrane Permeable-Phenotype (%) reported for O=C1NC(=O)C(c2cnc3ccccn23)=C1c1cn2c3c(cc(F)cc13)CN(C(=O)N1CCCCC1)CC2 = 48

For Cc1cc(C)c(S(=O)(=O)N(Cc2ccc(-c3cccc(S(C)(=O)=O)c3)cc2)Cc2ccc(C(F)(F)F)o2)c(C)c1 the compound record lists Population Membrane Permeable-Phenotype (%) as 6

# Population Membrane Permeable-Phenotype (%) of CCOc1cc(C(=O)N2CCC(N3CCN(C)CC3)CC2)ccc1Nc1ncc2c(n1)N(C1CCCC1)c1ccccc1C(=O)N2C = 93

----------
tested on: HEK-293T; assay: Multiplex assay against HEK293T; type: toxicity, cell-based; conditions: human, 48 h, 1 µM, compound concentration 1 uM, replicate 1
Please respond with reported Population Healthy Nuclei (%) for every item in the list.
Answer format: number, then unit.

// Population Healthy Nuclei (%) lookup, compound = COc1cc(N2CCN(C)CC2)ccc1Nc1ncc2c(n1)N(C)c1ccccc1C(=O)N2C , result: 71%

response.value for CNc1cc(Oc2cc(C(=O)Nc3cc(N4CCN(C)CC4)cc(C(F)(F)F)c3)ccc2C)ncn1 (field: Population Healthy Nuclei (%)) = 21%

Looking up Cl.Oc1ccc2c3c1O[C@H]1c4[nH]c5c(c4C[C@@]4(O)[C@@H](C2)N(CC2CC2)CC[C@]314)C[C@@]1(O)[C@H]2Cc3ccc(O)c4c3[C@@]1(CCN2CC1CC1)[C@H]5O4 , I see its Population Healthy Nuclei (%) listed as 44%

Given item O=C1N/C(=N/c2ccccc2F)S/C1=C\c1ccc(C(=O)O)cc1 , the value recorded as its Population Healthy Nuclei (%) is 43%

The compound O=C(Nc1ccc(-c2ccnc(Nc3ccc(N4CCOCC4)cc3)n2)cc1)[C@@H]1CCCN1 showed Population Healthy Nuclei (%) equal to 71%

Entry under test: Cc1cn(-c2cc(NC(=O)c3ccc(C)c(Nc4nccc(-c5cccnc5)n4)c3)cc(C(F)(F)F)c2)cn1 . Its Population Healthy Nuclei (%) was 31%

----------
Give measured Population Normal (%) for each item. Keep answers brief.
system: HEK-293T; experiment: Multiplex assay against HEK293T; format: toxicity, cell-based; settings: human, 24 h, 10 µM, compound concentration 10 uM, replicate 2
The number alone won't do; follow it with the unit.

The value of Population Normal (%) measured for the compound O=C(Cc1ccc(-c2ccc(OCCN3CCOCC3)cc2)cn1)NCc1ccccc1 [TIRBANIBULIN] turned out to be 94%

The recorded Population Normal (%) for CCOc1cc(C(=O)N2CCC(N3CCN(C)CC3)CC2)ccc1Nc1ncc2c(n1)N(C1CCCC1)c1ccccc1C(=O)N2C is 88%

Sure, the documented Population Normal (%) for COc1cccc2cc(-c3nc([C@H]4CC[C@H](C(=O)O)CC4)n4ncnc(N)c34)[nH]c12 [OSI-027] is 94%

Population Normal (%) for Cc1cc(C)c(S(=O)(=O)N(Cc2ccc(-c3cccc(S(C)(=O)=O)c3)cc2)Cc2ccc(C(F)(F)F)o2)c(C)c1 is 96%

Entry COc1cc(N2CCN(C)CC2)ccc1Nc1ncc2c(n1)N(C)c1ccccc1C(=O)N2C , Population Normal (%) reported as 94%

Field Population Normal (%) (entry Cc1cn(-c2cc(NC(=O)c3ccc(C)c(Nc4nccc(-c5cccnc5)n4)c3)cc(C(F)(F)F)c2)cn1 [NILOTINIB] ) reads 97%

Data point: CN1CCC(=C2c3ccccc3CC(=O)c3sccc32)CC1.O=C(O)/C=C/C(=O)O [KETOTIFEN FUMARATE] ; Population Normal (%) = 95%

The compound listed as Cc1ccc(C(=O)Nc2cccc(C(F)(F)F)c2)cc1Nc1nc(-c2cccnc2)nc2c1cnn2C has a reported Population Normal (%) of 95%

----------
Can you tell me Total Cell Count for the items I'm about to list?
test system: Fibroblast; assay: Multiplex assay against human fibroblast; type: toxicity, cell-based; settings: 12 h, 10 µM, compound concentration 10 uM, replicate 2

What the record says about CCn1cc(-c2ccnc3[nH]c(-c4cccc(CN(C)C)c4)cc23)c(-c2ccc(NC(=O)N(C)C)cc2)n1 : Total Cell Count is 127

# compound CNc1cc(Oc2cc(C(=O)Nc3cc(N4CCN(C)CC4)cc(C(F)(F)F)c3)ccc2C)ncn1 ; its Total Cell Count = 70

Reported Total Cell Count of Cc1ccc2nc(NCCN)c3ncc(C)n3c2c1.O=C(O)C(F)(F)F.O=C(O)C(F)(F)F : 90

Recorded result, COc1cc2ncnc(Nc3ccc(F)c(Cl)c3)c2cc1NC(=O)/C=C/CN1CCCCC1 [DACOMITINIB ANHYDROUS] , Total Cell Count: 94

GET /value?item= Cl.Oc1ccc2c3c1O[C@H]1c4[nH]c5c(c4C[C@@]4(O)[C@@H](C2)N(CC2CC2)CC[C@]314)C[C@@]1(O)[C@H]2Cc3ccc(O)c4c3[C@@]1(CCN2CC1CC1)[C@H]5O4 &field=Total Cell Count returns 73

Lab note: S=C(NCCCc1c[nH]cn1)NCCCN(Cc1ccc(Cl)c(Cl)c1)c1ccc(Br)cn1 gave Total Cell Count of 33

// Total Cell Count value for CCCn1c(=O)c2[nH]c(-c3cnn(Cc4cccc(C(F)(F)F)c4)c3)nc2n(CC)c1=O : 98

Per the record, C=C1/C(=C\C=C2/CCC[C@]3(C)[C@@H]([C@H](C)/C=C/[C@H](C)C(C)C)CC[C@@H]23)C[C@@H](O)C[C@@H]1O has Total Cell Count of 61

Reported Total Cell Count ( CCOC(=O)c1c(C)[nH]c2ccc3c(c12)CN1CCc2cc(OC)ccc2C1O3 (stereo not drawn) ) = 84

The compound CCN1CCN(Cc2ccc(Nc3ncc(F)c(-c4cc(F)c5nc(C)n(C(C)C)c5c4)n3)nc2)CC1.CS(=O)(=O)O showed Total Cell Count equal to 88

Just so you know, measured Total Cell Count for CCc1cccc(CC)c1NC(=O)c1nn(C)c2c1CCc1cnc(Nc3ccc(N4CCN(C)CC4)cc3OC)nc1-2 came out at 82

Reported Total Cell Count for CCOc1cc2ncc(C#N)c(Nc3ccc(OCc4ccccn4)c(Cl)c3)c2cc1NC(=O)/C=C/CN(C)C was 109

Looking up COc1ccc(-c2ccc3c(N4CCOCC4)nc(N4C[C@@H](C)O[C@@H](C)C4)nc3n2)cc1CO , I found its Total Cell Count recorded as 244

Looking up CN1CCC(=C2c3ccccc3CC(=O)c3sccc32)CC1.O=C(O)/C=C/C(=O)O [KETOTIFEN FUMARATE] , I see its Total Cell Count listed as 67

Lab note: measured Total Cell Count of Cn1nc(C(F)(F)F)cc1-c1cnc(N2CCc3cc(S(=O)(=O)Nc4c(F)cc(Cl)cc4F)cc(N4CCCC4=O)c32)nc1 was 60

// Total Cell Count lookup, compound = CCn1c(=O)c(-c2ccc(-c3cncs3)cc2Cl)cc2cnc(Nc3ccc(N4CCN(C)CC4)cc3)nc21 , result: 77

Lab note: measured Total Cell Count of CCCS(=O)(=O)Nc1ccc(F)c(C(=O)c2c[nH]c3ncc(Cl)cc23)c1F was 95

COc1cc(N2CCN(C)CC2)ccc1Nc1ncc2c(n1)N(C)c1ccccc1C(=O)N2C has a reported Total Cell Count of 42

Quick note, Total Cell Count for COCC(=O)NC/C=C/c1ccc2ncnc(Nc3ccc(Oc4ccc(C)nc4)c(C)c3)c2c1 landed at 62

response.value for O=C(Cc1ccc(-c2ccc(OCCN3CCOCC3)cc2)cn1)NCc1ccccc1 (field: Total Cell Count) = 81

// recorded Total Cell Count for CN1CCN(C(=O)C(C)(C)c2ccc(C(=O)Nc3cn4cc(-c5cc(C(C)(C)C)cc(C(C)(C)C)c5)ccc4n3)cc2)CC1 : 69

Measured Total Cell Count, CCCS(=O)(=O)c1nc(NC2CC2)cc(-c2ccc3c(ccn3C3CC(C)(C)NC(C)(C)C3)c2)n1 : 101

Measured Total Cell Count, CN(C)C(=O)C(CCN1CCC(O)(c2ccc(Cl)cc2)CC1)(c1ccccc1)c1ccccc1.Cl [LOPERAMIDE HYDROCHLORIDE] : 64

Record CCc1cccc(CC)c1NC(=O)c1nn(C)c2c1CCc1cnc(Nc3ccc(C(=O)NC4CCN(C)CC4)cc3OC(F)(F)F)nc1-2 , field Total Cell Count: 75

The recorded Total Cell Count for entry Cc1cn(-c2cc(NC(=O)c3ccc(C)c(Nc4nccc(-c5cccnc5)n4)c3)cc(C(F)(F)F)c2)cn1 equals 73

Short answer for O=C1NC(=O)C(c2cnc3ccccn23)=C1c1cn2c3c(cc(F)cc13)CN(C(=O)N1CCCCC1)CC2 : Total Cell Count was 63

// field: Total Cell Count; key: CN1C2CCC1CC(OC(c1ccc(F)cc1)c1ccc(F)cc1)C2.Cl (stereo not drawn) ; value = 78

Note to self: Total Cell Count recorded for CCN1CCN(c2ccc(Nc3cc(N(C)C(=O)Nc4c(Cl)c(OC)cc(OC)c4Cl)ncn3)cc2)CC1 was 98

Total Cell Count measured on COc1cccc2cc(-c3nc([C@H]4CC[C@H](C(=O)O)CC4)n4ncnc(N)c34)[nH]c12 = 88

# Total Cell Count (compound: O=C(Nc1ccc(-n2nc(-c3cccnc3)cc2C(F)(F)F)cn1)c1ccc(-c2ccccc2)c(F)c1 ) is 65

Briefly, Total Cell Count measured for Cl.O=c1c2cccn2c2ccccc2n1CCCN1CCC(c2ccc(Cl)cc2)CC1 : 58

The reported Total Cell Count of the compound O=C(Nc1ccc(Cl)cc1)Nc1cccc(-c2cccc(N3CCCC3)n2)c1 was 69

Notebook: O=C1N/C(=N/c2ccccc2F)S/C1=C\c1ccc(C(=O)O)cc1 , Total Cell Count read as 59
